Assay: MTT assay, 3T3-L1 viability during differentiation with clozapine, risperidone, berberine (Example 2)
Assay type: cell-based, mouse
Conditions: mouse, 3T3-L1 cells during differentiation induction; read-out: reduction of cell viability
PROPERTY MEASURED: cytotoxicity at 8 days, 30 μM (%)
Write down the numeric answer in % and omit the unit.

Input CN1CCN(C2=Nc3cc(Cl)ccc3Nc3ccccc32)CC1 [clozapine, reference compound] . Output cytotoxicity at 8 days, 30 μM: 12.5

* * *

Assay: in vitro
Conditions: mouse, 3T3-L1 cells during differentiation
PROPERTY MEASURED: cytotoxicity at 2 days, 8 μM

Input COc1ccc2cc3[n+](cc2c1OC)CCc1cc2c(cc1-3)OCO2.[Cl-] [berberine, Berberine (Chloride Form)] . Output cytotoxicity at 2 days, 8 μM: 15.6%
